- measured_target: UniProt:P56524
- Sequence (P56524 whole entry): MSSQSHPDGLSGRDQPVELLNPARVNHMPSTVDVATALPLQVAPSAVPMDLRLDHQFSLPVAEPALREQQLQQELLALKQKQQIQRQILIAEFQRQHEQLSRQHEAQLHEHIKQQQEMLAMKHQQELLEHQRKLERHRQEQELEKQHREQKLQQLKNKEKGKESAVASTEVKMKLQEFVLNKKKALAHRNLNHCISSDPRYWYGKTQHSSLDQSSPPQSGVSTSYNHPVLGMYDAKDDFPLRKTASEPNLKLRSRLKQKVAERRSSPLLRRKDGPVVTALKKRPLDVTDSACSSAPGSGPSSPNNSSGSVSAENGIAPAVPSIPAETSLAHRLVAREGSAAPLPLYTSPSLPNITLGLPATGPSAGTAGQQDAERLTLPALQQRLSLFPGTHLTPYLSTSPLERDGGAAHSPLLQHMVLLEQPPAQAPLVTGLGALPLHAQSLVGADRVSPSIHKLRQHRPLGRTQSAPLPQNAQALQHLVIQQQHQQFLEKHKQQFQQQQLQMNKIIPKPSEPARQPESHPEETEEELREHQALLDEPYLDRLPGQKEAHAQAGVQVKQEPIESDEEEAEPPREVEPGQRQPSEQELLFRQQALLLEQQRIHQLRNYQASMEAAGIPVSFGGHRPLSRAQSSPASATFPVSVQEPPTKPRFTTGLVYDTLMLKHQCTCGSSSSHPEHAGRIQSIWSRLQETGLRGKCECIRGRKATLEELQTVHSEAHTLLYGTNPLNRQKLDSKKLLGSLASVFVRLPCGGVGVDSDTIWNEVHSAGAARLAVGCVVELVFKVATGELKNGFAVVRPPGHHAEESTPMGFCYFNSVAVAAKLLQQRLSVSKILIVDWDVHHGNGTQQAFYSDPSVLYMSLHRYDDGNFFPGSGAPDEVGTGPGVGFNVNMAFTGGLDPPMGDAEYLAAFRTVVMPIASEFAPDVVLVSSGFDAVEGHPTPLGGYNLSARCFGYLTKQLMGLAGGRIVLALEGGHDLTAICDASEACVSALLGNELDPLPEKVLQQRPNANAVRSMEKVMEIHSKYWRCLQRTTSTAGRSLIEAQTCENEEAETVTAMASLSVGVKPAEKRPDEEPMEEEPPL
- assay_method_text: Inhibition of full length recombinant N-terminal GST-tagged human HDAC4 (612 to end residues)expressed in baculovirus infected Sf9 insect cells incubated for 50 mins by Glo- luminescence assay
measurement_type: IC50

[[record]]
compound_string = "CN(C)CCCNC(=O)c1ccc(/C=C2\\CCn3c2nc2cc(N4CCN(CCCCCCCC(=O)NO)CC4)c(F)cc2c3=O)cc1.Cl"
result = "2.64 µM"


====

- assay_method_text: Inhibition of full length recombinant N-terminal GST-tagged human HDAC11 expressed in baculovirus infected Sf9 insect cells incubated for 50 mins by Glo- luminescence assay
- Format: cell-based
measurement_type: IC50 (µM)

[[record]]
compound_string = "CN(C)CCCNC(=O)c1ccc(/C=C2\\CCn3c2nc2cc(N4CCN(CCCCCCCC(=O)NO)CC4)c(F)cc2c3=O)cc1.Cl"
number = 1.38


====

Measured ΔTm by item
- Tested on: Quadruplex DNA
- applied_conditions: dose 1.0 µM
- Description: Binding affinity to 5' FAM and 3' TAMRA-labeled c-myc G4-quadruplex DNA Pu22 (unknown origin) assessed as change in melting temperature at 1 uM by fluorescence resonance energy transfer assay
measurement_type: ΔTm (°C)

[[record]]
compound_string = "CN(C)CCCNC(=O)c1ccc(/C=C2\\CCn3c2nc2cc(N4CCN(Cc5ccc(/C=C/C(=O)Nc6ccccc6N)cc5)CC4)c(F)cc2c3=O)cc1"
unit_name = "°C"
number = 0.7

[[record]]
compound_string = "CN1CCN(c2cc3nc4n(c(=O)c3cc2F)CC/C4=C\\c2ccc(C(=O)NO)cc2)CC1"
unit_name = "°C"
number = 5.7

[[record]]
compound_string = "Nc1ccccc1NC(=O)c1ccc(/C=C2\\CCn3c2nc2cc(NCCCN4CCCC4)c(F)cc2c3=O)cc1"
unit_name = "°C"
number = 0.6

[[record]]
compound_string = "CN(C)CCCNC(=O)c1ccc(/C=C2\\CCn3c2nc2cc(N4CCN(Cc5ccc(/C=C/C(=O)NO)cc5)CC4)c(F)cc2c3=O)cc1.Cl"
unit_name = "°C"
number = 1.8

[[record]]
compound_string = "CN(C)CCCNC(=O)c1ccc(/C=C2\\CCn3c2nc2cc(N4CCN(CCCCCCCC(=O)NO)CC4)c(F)cc2c3=O)cc1.Cl"
unit_name = "°C"
number = 16.7

[[record]]
compound_string = "CN(C)CCCNC(=O)c1ccc(/C=C2\\CCn3c2nc2cc(N4CCN(CCCC(=O)NO)CC4)c(F)cc2c3=O)cc1"
unit_name = "°C"
number = 16.4

[[record]]
compound_string = "CN(C)CCCNC(=O)c1ccc(/C=C2\\CCn3c2nc2cc(N4CCN(CCCCCCC(=O)NO)CC4)c(F)cc2c3=O)cc1.Cl"
unit_name = "°C"
number = 15.9

[[record]]
compound_string = "CN(C)CCCNC(=O)c1ccc(/C=C2\\CCn3c2nc2cc(N4CCN(CCCCCC(=O)NO)CC4)c(F)cc2c3=O)cc1.Cl"
unit_name = "°C"
number = 17.3

[[record]]
compound_string = "CN(C)CCCNC(=O)c1ccc(/C=C2\\CCn3c2nc2cc(N4CCN(CCCCCCCC(=O)Nc5ccccc5N)CC4)c(F)cc2c3=O)cc1"
unit_name = "°C"
number = 8.2

[[record]]
compound_string = "CN(C)CCCNC(=O)c1ccc(/C=C2\\CCn3c2nc2cc(N4CCN(Cc5ccc(C(=O)NO)cc5)CC4)c(F)cc2c3=O)cc1.Cl"
unit_name = "°C"
number = 4.3

[[record]]
compound_string = "CN(C)CCCNC(=O)c1ccc(/C=C2\\CCn3c2nc2ccc(OCCCCCCC(=O)NO)cc2c3=O)cc1.Cl"
unit_name = "°C"
number = 4.4

[[record]]
compound_string = "CN(C)CCCNC(=O)c1ccc(/C=C2\\CCn3c2nc2cc(N4CCN(CCCCC(=O)NO)CC4)c(F)cc2c3=O)cc1.Cl"
unit_name = "°C"
number = 16.7

[[record]]
compound_string = "Nc1ccccc1NC(=O)c1ccc(CNC(=O)OCc2cccnc2)cc1"
unit_name = "°C"
number = 0.1

[[record]]
compound_string = "CCN(CC)CCCNC(=O)c1ccc(/C=C2\\CCn3c2nc2cc(NCCCN4CCCC4)c(F)cc2c3=O)cc1"
unit_name = "°C"
number = 17.4

[[record]]
compound_string = "CN1CCN(c2cc3nc4n(c(=O)c3cc2F)CC/C4=C\\c2ccc(C(=O)Nc3ccccc3N)cc2)CC1"
unit_name = "°C"
number = 0.3

[[record]]
compound_string = "Cl.O=C(CCCCCCNC(=O)c1ccc(/C=C2\\CCn3c2nc2cc(NCCCN4CCCC4)c(F)cc2c3=O)cc1)NO"
unit_name = "°C"
number = 3.2

[[record]]
compound_string = "CN(C)CCCNC(=O)c1ccc(/C=C2\\CCn3c2nc2cc(NCCCCCCC(=O)NO)c(F)cc2c3=O)cc1.Cl"
unit_name = "°C"
number = 7.2

[[record]]
compound_string = "CN(C)CCCNc1cc2nc3n(c(=O)c2cc1F)CC/C3=C\\c1ccc(C(=O)Nc2ccccc2N)cc1"
unit_name = "°C"
number = 2.3


Values were extracted from ChEMBL document CHEMBL5113518.
